assay-target: Sodium channel protein type 9 subunit alpha (Homo sapiens)
assay-name: Antagonist activity at 20% inactivated human sodium channel Nav1.7 expressed in human HEK293 cells by patch-clamp electrophysiological assay
Assay type: functional, cell-based
pIC50: −log10 of the molar value.
# pIC50 listing for each entry below

Inquiry: Fill: pIC50 (Sodium channel protein type 9 subunit alpha (Homo sapiens)) for this molecule COc1cc(N)nc(SCc2ccc(C(C)(C)C)cc2)n1
Reply text: < 4.52

---

assay-name: Solubility of the compound in simulated intestinal fluid
Assay type: physicochemical
quantity-kind: solubility (µg/mL)

Cn1c(SCc2ccc(C(C)(C)C)cc2)nc(N)cc1=O 14

a. CC(C)(C)c1ccc(CSc2nc(N)cc(O)n2)cc1
b. CCCCCCCSc1nc(N)cc(=O)[nH]1
Inquiry: Parameter metric = solubility. Return the lower-valued option from a and b . The response must carry the label of the picked entry.
Reply text: b

---

assay-name: Solubility of the compound in 0.01 N HCl
Format: physicochemical
quantity-kind: solubility (µg/mL)

CCCCCCCSc1nc(N)cc(=O)[nH]1 3

1. CC(C)(C)c1ccc(CSc2nc(N)cc(O)n2)cc1
2. Cn1c(SCc2ccc(C(C)(C)C)cc2)nc(N)cc1=O
Inquiry: Quick check, higher solubility between 1 and 2 ? Reply briefly: the label of your chosen item.
Reply text: 1

---

assay-name: Clearance in Sprague-Dawley rat at 0.5 mg/kg, iv
Type: ADME, organism-based
Set-up: dose 0.5 mg/kg, route intravenous
experimental-setup: in vivo
quantity-kind: clearance (mL/min/kg)

I. CC(C)(C)c1ccc(CSc2nc(N)cc(O)n2)cc1
II. Cn1c(SCc2ccc(C(C)(C)C)cc2)nc(N)cc1=O
Inquiry: Kindly compare I with II and tell me which has the lower clearance figure. // return label of chosen record
Reply text: II

---

assay-target: Sodium channel protein type 9 subunit alpha (Homo sapiens, UniProt Q15858)
Sequence (Q15858 whole entry): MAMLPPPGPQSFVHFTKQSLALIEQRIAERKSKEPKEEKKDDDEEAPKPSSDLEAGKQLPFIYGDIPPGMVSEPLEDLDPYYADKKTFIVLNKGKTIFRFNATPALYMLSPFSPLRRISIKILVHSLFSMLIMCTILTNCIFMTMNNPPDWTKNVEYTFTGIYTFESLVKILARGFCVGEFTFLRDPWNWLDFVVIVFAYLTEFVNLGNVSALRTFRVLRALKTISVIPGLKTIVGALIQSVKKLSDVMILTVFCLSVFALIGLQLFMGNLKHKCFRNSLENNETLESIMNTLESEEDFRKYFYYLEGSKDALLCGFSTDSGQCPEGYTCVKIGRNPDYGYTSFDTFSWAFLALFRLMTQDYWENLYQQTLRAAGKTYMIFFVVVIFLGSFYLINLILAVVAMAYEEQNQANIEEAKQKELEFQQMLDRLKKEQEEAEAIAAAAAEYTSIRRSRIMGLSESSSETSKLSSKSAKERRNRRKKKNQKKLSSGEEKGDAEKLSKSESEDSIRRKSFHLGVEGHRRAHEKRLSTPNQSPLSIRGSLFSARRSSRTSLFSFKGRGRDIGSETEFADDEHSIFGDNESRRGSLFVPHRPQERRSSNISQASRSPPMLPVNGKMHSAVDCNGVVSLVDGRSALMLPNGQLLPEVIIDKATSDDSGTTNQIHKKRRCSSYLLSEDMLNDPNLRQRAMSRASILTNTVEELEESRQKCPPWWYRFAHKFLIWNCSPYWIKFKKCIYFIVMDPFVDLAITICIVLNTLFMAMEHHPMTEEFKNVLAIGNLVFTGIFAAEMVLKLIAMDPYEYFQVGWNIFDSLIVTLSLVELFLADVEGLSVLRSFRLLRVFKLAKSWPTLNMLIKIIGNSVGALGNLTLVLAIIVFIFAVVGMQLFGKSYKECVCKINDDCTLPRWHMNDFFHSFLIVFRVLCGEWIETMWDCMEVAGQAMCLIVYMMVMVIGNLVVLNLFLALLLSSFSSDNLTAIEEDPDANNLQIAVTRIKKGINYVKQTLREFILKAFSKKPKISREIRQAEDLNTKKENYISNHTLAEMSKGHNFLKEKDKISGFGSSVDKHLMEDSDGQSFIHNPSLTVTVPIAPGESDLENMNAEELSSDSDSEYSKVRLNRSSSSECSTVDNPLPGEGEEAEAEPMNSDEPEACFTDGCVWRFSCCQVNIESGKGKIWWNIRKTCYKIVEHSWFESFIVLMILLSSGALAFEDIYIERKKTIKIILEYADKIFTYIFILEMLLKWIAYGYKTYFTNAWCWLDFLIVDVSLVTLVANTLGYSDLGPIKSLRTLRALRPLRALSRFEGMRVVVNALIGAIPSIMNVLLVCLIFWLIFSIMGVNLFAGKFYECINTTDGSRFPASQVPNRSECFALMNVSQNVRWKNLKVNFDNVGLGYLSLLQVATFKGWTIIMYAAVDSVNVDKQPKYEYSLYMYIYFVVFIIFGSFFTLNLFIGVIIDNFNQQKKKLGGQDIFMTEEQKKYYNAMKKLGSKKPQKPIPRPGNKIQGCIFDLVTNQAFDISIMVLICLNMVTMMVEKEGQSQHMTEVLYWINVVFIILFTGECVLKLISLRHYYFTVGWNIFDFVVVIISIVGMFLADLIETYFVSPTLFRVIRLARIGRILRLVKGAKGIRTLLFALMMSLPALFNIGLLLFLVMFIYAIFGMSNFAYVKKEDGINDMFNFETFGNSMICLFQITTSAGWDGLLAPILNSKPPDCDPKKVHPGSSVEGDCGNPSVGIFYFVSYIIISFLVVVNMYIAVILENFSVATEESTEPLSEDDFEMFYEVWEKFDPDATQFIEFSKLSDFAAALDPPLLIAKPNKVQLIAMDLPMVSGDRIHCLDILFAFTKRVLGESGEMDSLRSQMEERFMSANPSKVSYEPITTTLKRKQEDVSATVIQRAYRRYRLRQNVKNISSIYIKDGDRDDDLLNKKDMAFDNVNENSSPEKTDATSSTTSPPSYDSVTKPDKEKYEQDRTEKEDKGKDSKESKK
assay-name: Antagonist activity at non-inactivated human sodium channel Nav1.7 expressed in human HEK293 cells by manual patch-clamp electrophysiological assay
Format: functional, cell-based
quantity-kind: IC50 (nM)

A. CCCCCCCSc1nc(N)cc(=O)[nH]1
B. Cn1c(SCc2ccc(C(C)(C)C)cc2)nc(N)cc1=O
C. CC(C)(C)c1ccc(CSc2nc(N)cc(O)n2)cc1
Inquiry: Parameters: sort_field (IC50), sort_dir (desc). Write the labels in rank order as requested.
Reply text: C, A, B
(C: 2200 nM, A: 1400 nM, B: 500 nM)

---

assay-target: Sodium channel protein type 9 subunit alpha (Homo sapiens)
assay-name: Antagonist activity at 20% inactivated human sodium channel Nav1.7 expressed in human HEK293 cells by patch-clamp electrophysiological assay
Type: functional, cell-based
quantity-kind: IC50 (µM)

Nc1cc(=O)[nH]c(SCc2ccc(Cl)cc2)n1 4.7

a. CC(C)(C)c1ccc(CSc2nc(N)c(Cl)c(=O)[nH]2)cc1
b. Nc1cc(=O)[nH]c(SCc2ccc(OC(F)(F)F)cc2)n1
c. CC(=O)Nc1cc(=O)[nH]c(SCc2ccc(C(C)(C)C)cc2)n1
d. CC(C)(C)c1ccc(CSc2nc(N)cc(O)n2)cc1
Inquiry: Order these by IC50, descending, and give the full ranking. Give the labels in the order requested.
Reply text: a, b, c, d

---

assay-target: Sodium channel protein type 9 subunit alpha (Homo sapiens)
assay-name: Antagonist activity at 20% inactivated human sodium channel Nav1.7 expressed in human HEK293 cells by manual patch-clamp electrophysiological assay
Type: functional, cell-based
quantity-kind: IC50 (nM)

CC(C)(C)c1ccc(CSc2nc(N)cc(O)n2)cc1 340

A. Cn1c(SCc2ccc(C(C)(C)C)cc2)nc(N)cc1=O
B. CCCCCCCSc1nc(N)cc(=O)[nH]1
Inquiry: Please indicate which entry, A or B , has the lower recorded IC50 value. // caller expects the label of the chosen entry
Reply text: A
(A: 80 nM, B: 400 nM)
